Reported %Inh values are given for each entry in this list.
# Test system: ERK8;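 note: KINOMEscan kinase panel screen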
# Construct: gene MAPK15
# condition.details: concentration: 1 μM, replicates: in singlicate; n = 1
Number only, in %; omit the unit.

Some solved entries appear below for comparison.
[[record]]
compound = "Cc1nnc(-c2ccc(C)c(-c3ccc(C(=O)Nc4ccc(NS(C)(=O)=O)cc4)cc3)c2)o1"
measured_metric = "%Inh"
result = 0

[[record]]
compound = "NCC(NC(=O)c1cc(-c2cn[nH]c2)c(-c2ccnc3[nH]ccc23)s1)c1ccccc1.O=C(O)C(F)(F)F.O=C(O)C(F)(F)F (centres unmarked)"
measured_metric = "%Inh"
result = 51


Quick one: %Inh for "CN(C1=C(c2ccccc2)C(=O)NC1=O)c1ccccc1" ?
0

Quick one: %Inh for "O=C(NCCNc1ccnc(Nc2ccc(F)cc2)n1)Nc1ccccc1F" ?
0

Quick one: %Inh for "CC(C)(CN)c1nc(-c2ccc(Cl)c(O)c2)c(-c2ccncc2)[nH]1.O=C(O)C(F)(F)F" ?
0
